# testedTarget: PI3Kα (p110[H1047R]/p85) kinase (Homo sapiens, UniProt P42336, H1047R)
# Sequence (P42336 whole entry H1047R): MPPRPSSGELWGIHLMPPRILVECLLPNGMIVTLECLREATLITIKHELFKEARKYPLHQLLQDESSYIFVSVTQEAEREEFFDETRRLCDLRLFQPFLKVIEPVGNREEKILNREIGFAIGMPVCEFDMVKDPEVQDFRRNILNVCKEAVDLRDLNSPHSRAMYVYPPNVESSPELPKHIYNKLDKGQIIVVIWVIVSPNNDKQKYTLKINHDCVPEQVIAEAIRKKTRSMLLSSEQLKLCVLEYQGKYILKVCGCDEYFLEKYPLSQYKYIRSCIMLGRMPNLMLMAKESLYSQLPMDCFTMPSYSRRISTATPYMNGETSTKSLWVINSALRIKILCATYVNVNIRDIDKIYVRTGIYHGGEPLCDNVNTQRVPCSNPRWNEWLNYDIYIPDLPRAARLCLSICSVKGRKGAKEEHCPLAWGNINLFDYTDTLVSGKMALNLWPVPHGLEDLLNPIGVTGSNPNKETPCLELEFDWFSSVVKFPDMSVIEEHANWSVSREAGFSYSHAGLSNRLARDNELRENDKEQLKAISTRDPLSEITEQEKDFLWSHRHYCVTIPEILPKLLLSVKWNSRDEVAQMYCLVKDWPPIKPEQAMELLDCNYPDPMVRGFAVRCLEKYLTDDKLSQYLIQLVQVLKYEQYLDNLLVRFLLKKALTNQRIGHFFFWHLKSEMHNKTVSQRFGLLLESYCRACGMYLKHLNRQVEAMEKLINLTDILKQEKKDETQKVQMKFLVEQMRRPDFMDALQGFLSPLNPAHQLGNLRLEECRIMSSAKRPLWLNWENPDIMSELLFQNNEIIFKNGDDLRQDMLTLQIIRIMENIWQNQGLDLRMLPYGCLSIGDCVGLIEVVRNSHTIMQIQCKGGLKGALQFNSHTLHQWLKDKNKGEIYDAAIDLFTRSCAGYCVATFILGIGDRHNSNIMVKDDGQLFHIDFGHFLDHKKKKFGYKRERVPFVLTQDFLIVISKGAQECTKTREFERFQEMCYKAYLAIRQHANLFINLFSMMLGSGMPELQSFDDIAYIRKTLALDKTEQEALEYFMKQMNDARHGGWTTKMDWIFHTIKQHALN
# Sequence (P27986 whole entry partner): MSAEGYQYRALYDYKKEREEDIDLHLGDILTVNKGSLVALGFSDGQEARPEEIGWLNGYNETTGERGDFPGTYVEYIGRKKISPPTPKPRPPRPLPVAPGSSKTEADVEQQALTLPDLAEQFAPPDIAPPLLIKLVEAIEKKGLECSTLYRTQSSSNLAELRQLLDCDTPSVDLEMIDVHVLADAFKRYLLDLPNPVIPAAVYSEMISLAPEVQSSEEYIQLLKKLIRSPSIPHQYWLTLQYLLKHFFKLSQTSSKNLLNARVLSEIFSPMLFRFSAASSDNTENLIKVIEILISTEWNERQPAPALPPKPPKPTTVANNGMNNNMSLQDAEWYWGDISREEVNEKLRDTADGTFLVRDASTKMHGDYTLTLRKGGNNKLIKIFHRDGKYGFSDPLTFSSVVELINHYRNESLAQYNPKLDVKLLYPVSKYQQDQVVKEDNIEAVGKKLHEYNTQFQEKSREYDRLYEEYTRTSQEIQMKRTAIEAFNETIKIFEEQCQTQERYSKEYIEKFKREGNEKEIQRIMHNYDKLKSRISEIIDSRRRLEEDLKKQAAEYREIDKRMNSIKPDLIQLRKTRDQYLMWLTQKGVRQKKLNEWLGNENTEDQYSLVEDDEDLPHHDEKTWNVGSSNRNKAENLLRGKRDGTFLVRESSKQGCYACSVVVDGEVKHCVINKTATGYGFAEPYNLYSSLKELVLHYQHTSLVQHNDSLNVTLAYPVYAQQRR
# protocolText: PI3Kα (p110[H1047R]/p85) kinase ADP-Glo Assay
# Format: biochemical
# conditionDescription: ADP-Glo Assay IC50 ratio, 25 uM ATP
Listed here: items and their measured selectivity: WT/H1047R.
Reply briefly: the number, and no unit.

These solved cases illustrate the format of a correct answer.
>  <compound>
Cc1cc(C(C)Nc2ccccc2C(=O)O)c2cc(-c3cccc4cn(C)nc34)n(C)c(=O)c2c1 (stereo not shown)

>  <measurement>
30.3

$$$$
>  <compound>
Cc1cc(C(C)Nc2cccnc2C(=O)O)c2cc(-c3ccc(F)cc3)n(C)c(=O)c2c1 (stereo not shown)

>  <measurement>
52.6

$$$$

For the compound shown here, `COc1ncc(-c2cc3c([C@@H](C)Nc4ccccc4C(=O)O)cc(C)cc3c(=O)n2C)cc1F` , give the reported selectivity: WT/H1047R.
15.3

Recorded selectivity: WT/H1047R for Cc1cc(C(C)Nc2ccccc2C(=O)O)c2cc(-c3ccc(F)cc3)n(C)c(=O)c2c1 (stereo not shown) , please?
32.6

----------
Listed compounds paired with reported selectivity: WT/H1047R
# testedTarget: PI3Kα (p110[H1047R]/p85) kinase (Homo sapiens, UniProt P42336, H1047R)
# protocolText: PI3Kα (p110[H1047R]/p85) kinase ADP-Glo Assay
# Format: biochemical
# conditionDescription: ADP-Glo Assay IC50 ratio, 25 uM ATP

The cases that follow already have their selectivity: WT/H1047R on record.
>  <compound>
Cc1cc([C@@H](C)Nc2ccccc2C(=O)O)c2cc(-c3ccc(F)cc3)n(CC#N)c(=O)c2c1

>  <measurement>
21.9

$$$$
>  <compound>
Cc1cc(C(C)Nc2ccccc2C(=O)O)c2cc(-c3cncc(F)c3)n(C)c(=O)c2c1 (stereo not shown)

>  <measurement>
36.7

$$$$
>  <compound>
Cc1cc(C(C)Nc2ccccc2C(=O)O)c2cc(-c3cccc(C(F)(F)F)c3)n(C)c(=O)c2c1 (stereo not shown)

>  <measurement>
27.6

$$$$
>  <compound>
Cc1cc(C(C)Nc2ccccc2C(=O)O)c2cc(-c3ccc4c(c3)C(=O)N(C)C4)n(C)c(=O)c2c1 (stereo not shown)

>  <measurement>
32.3

$$$$
>  <compound>
Cc1cc(C(C)Nc2ccccc2C(=O)O)c2cc(-c3ccc(-c4cnn(C)c4)cc3)n(C)c(=O)c2c1 (stereo not shown)

>  <measurement>
9.1

$$$$

Record Cc1cc(C(C)Nc2c(C(=O)O)sc3ccccc23)c2cc(-c3ccccc3)n(C)c(=O)c2c1 (stereo not shown) : what is its selectivity: WT/H1047R with PI3Kα (p110[H1047R]/p85) kinase (Homo sapiens, UniProt P42336, H1047R)?
6.2

What measured selectivity: WT/H1047R is associated with Cc1cc(C(C)Nc2ccccc2C(=O)O)c2cc(-c3ccccc3)n(C)c(=O)c2c1 (stereo not shown) on PI3Kα (p110[H1047R]/p85) kinase (Homo sapiens, UniProt P42336, H1047R)?
16.3

----------
# Test system: WT cell line SK-BR-3
# protocolText: Cell Proliferation Assay (CellTiter-Glo), SK-BR-3
# Assay type: cell-based
# conditionDescription: Homo sapiens, 72 h; SK-BR-3, 3 days treatment
quantityKind: IC50

>  <compound>
Cc1cc([C@@H](C)Nc2ccccc2C(=O)O)c2cc(-c3cnc(C(C)(C)O)nc3)n(C)c(=O)c2c1

>  <IC50>
> 10 µM

$$$$
>  <compound>
Cc1cc(C(C)Nc2ccccc2C(=O)O)c2cc(-c3ccc4c(c3)C(=O)N(C)C4)n(C)c(=O)c2c1 (stereo not drawn)

>  <IC50>
> 10 µM

$$$$
>  <compound>
Cc1cc(C(C)Nc2ccccc2C(=O)O)c2cc(-c3ccc(C(F)(F)F)nc3)n(C)c(=O)c2c1 (stereo not drawn)

>  <IC50>
> 10 µM

$$$$
>  <compound>
Cc1cc(C(C)Nc2ccccc2C(=O)O)c2cc(-c3cccc(F)c3)n(C)c(=O)c2c1 (stereo not drawn)

>  <IC50>
> 10 µM

$$$$
>  <compound>
Cc1cc(C(C)Nc2ccccc2C(=O)O)c2cc(-c3cccc(F)c3F)n(C)c(=O)c2c1 (stereo not drawn)

>  <IC50>
> 10 µM

$$$$

Data request, read-out IC50, for `Cc1cc([C@H](C)Nc2ccccc2C(=O)O)c2cc(-c3ccc(F)cc3)n(C)c(=O)c2c1`
> 10 µM

Given the compound Cc1cc(C(C)Nc2ccccc2C(=O)O)c2cc(-c3cc(F)cc(F)c3)n(C)c(=O)c2c1 (stereo not drawn) , what is its reported IC50?
> 10 µM

Requested read-out: IC50. Entry: Cc1cc(C(C)Nc2ccccc2C(=O)O)c2cc(-c3ccc4c(c3)CN(C)C4=O)n(C)c(=O)c2c1 (stereo not drawn)
> 10 µM

Fill in the blank: the reported IC50 of Cc1cc(C(C)Nc2ccccc2C(=O)O)c2cc(-c3cccc(C(C)(C)C#N)c3)n(C)c(=O)c2c1 (stereo not drawn) is ____.
> 10 µM
